Data origin: ChEMBL document CHEMBL4513216

System: Plasmodium berghei
experiment-summary: Screen against P. berghei liver stage (PbLuc), transformed with Luciferase, at 10uM
Assay type: functional, HepG2
test-settings: tested at 10 uM
Hit rate of the full screen: of about 69,000 compounds, about 8,600 (12%) showed an effect of 50% or more. What follows is part of a selection rich in strong results, with near analogues and random picks from the rest.
The reader will find reported INHIBITION values listed item by item below.

[
  {
    "molecule": "CC(C)CCc1noc(C[S+]([O-])CC(=O)NCc2ccccc2)n1 (stereo unspecified)",
    "INHIBITION": "55.3%"
  },
  {
    "molecule": "COCCN(C)C(=O)c1cc2c(s1)CCN2C(=O)C1CC1",
    "INHIBITION": "37.5%"
  },
  {
    "molecule": "CCc1nc(C(=O)N2CCCC2)nn1-c1ccccc1Cl",
    "INHIBITION": "67.3%"
  },
  {
    "molecule": "CN1C(=O)COc2ccc(NC(=O)CCc3nc4cccnc4[nH]3)cc21",
    "INHIBITION": "39.7%"
  },
  {
    "molecule": "Cc1ccc(CN2CCCn3nnc(COCCN(C)C)c3C2)s1",
    "INHIBITION": "54.8%"
  },
  {
    "molecule": "CC(C)c1noc(C(C)N2CCC(c3nc4ccccc4[nH]3)CC2)n1 (stereo unspecified)",
    "INHIBITION": "36.5%"
  },
  {
    "molecule": "O=C1CCCC2=C1C(c1ccco1)C1C(=O)NN=C1N2 (stereo unspecified)",
    "INHIBITION": "36.3%"
  },
  {
    "molecule": "COCCN1CCO[C@@H]2CN(Cc3ccc(C)s3)C[C@@H]2C1",
    "INHIBITION": "24.6%"
  },
  {
    "molecule": "Cc1nc(C(=O)N2CCCCC2)nn1-c1ccccc1Cl",
    "INHIBITION": "4.52%"
  },
  {
    "molecule": "CC(C)Cc1nc(C[S+]([O-])CC(=O)NCc2ccccc2)no1 (stereo unspecified)",
    "INHIBITION": "-5.1%"
  },
  {
    "molecule": "CCc1nc(C(=O)N2CCCCC2)nn1-c1ccccc1Cl",
    "INHIBITION": "12.7%"
  }
]
